meta.source: patent US20230295330A1

// values below are reported pEC50
# TESTED_TARGET: T1, human CD228 (R&D Systems Custom02; Lot DCWR021505A) (human, UniProt P08582 20-709, limits assumed)
# T1 construct: Bought custom protein coated on ELISA plates; also called CD228 protein; melanotransferrin
# T1 sequence (looked up): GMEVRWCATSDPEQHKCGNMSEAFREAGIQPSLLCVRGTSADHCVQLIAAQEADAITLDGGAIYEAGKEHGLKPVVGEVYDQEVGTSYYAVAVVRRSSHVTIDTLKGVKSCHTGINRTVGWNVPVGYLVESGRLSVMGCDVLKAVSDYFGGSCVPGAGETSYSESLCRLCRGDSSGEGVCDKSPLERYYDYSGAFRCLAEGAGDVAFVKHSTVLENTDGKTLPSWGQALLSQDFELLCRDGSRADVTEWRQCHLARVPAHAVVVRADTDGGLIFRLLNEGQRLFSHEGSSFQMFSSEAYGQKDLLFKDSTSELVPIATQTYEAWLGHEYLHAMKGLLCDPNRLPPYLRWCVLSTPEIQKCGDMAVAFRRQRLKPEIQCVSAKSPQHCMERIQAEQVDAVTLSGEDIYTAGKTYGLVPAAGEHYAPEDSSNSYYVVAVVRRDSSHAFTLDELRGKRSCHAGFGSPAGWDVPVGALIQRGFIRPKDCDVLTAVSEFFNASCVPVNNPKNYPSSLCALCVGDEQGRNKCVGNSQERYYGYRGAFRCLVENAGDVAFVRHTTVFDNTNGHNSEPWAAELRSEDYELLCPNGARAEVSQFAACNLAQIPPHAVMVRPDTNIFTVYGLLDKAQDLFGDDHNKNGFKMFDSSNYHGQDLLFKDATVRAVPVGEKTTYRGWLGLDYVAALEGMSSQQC
# ASSAY_NAME: ELISA, coated human CD228, pH 7.40
# Description: Briefly, 100 ng of human CD228 (R&D Systems Custom02; Lot DCWR021505A) or BSA (Sigma; Catalog No. A7030-100G) were diluted in PBS and added to each well overnight at 4° C. Plates were then washed three times with PBS-T (EMD Millipore; Catalog No. 5246531EA). After washing, plates were blocked with 3% (w/v) BSA in PBS-T for 1 hour at room temperature. […]
pEC50: −log10 of the molar value.
ASSAY_ENDPOINT: pEC50

INSERT INTO assay_data (binder, assay_endpoint, observed) VALUES
  ('hL49_34_Gln (antibody, V domains shown, hL49 variant with the light chain CDR-L1 histidine 34 changed to glutamine) VH: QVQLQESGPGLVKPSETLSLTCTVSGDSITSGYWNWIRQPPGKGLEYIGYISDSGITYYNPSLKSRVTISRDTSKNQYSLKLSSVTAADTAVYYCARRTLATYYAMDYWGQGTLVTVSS VL: DFVMTQSPLSLPVTLGQPASISCRASQSLVHSDGNTYLQWYQQRPGQSPRLLIYRVSNRFSGVPDRFSGSGSGTDFTLKISRVEAEDVGVYYCSQSTHVPPTFGQGTKLEIK', 'pEC50', 8.78),
  ('hL49 (antibody, V domains shown, Humanized antibody; Only variable domains are tied to it; also called hL49 HALC; hL49 WT) VH: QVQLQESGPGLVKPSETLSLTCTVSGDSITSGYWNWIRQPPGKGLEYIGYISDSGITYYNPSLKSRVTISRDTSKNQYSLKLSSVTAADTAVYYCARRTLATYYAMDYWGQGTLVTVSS VL: DFVMTQSPLSLPVTLGQPASISCRASQSLVHSDGNTYLHWYQQRPGQSPRLLIYRVSNRFSGVPDRFSGSGSGTDFTLKISRVEAEDVGVYYCSQSTHVPPTFGQGTKLEIK', 'pEC50', 8.75),
  ('hL49_3X_Tyr (antibody, V domains shown, hL49 triple mutant: all three light chain CDR histidines changed to tyrosine) VH: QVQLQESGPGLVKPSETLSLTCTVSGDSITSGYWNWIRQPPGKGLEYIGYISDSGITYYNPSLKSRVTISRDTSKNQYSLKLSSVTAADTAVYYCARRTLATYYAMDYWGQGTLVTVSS VL: DFVMTQSPLSLPVTLGQPASISCRASQSLVYSDGNTYLYWYQQRPGQSPRLLIYRVSNRFSGVPDRFSGSGSGTDFTLKISRVEAEDVGVYYCSQSTYVPPTFGQGTKLEIK', 'pEC50', 8.27);
